Just for reference, ChEMBL document CHEMBL4513216 is where these values come from.

# Measurement Description: Toxicity liver stage against HepG2, at 10uM
# Type: cell-based
# Set-up: test concentration 10 uM, cell line HepG2-A16-CD81EGFP
# Measurement Context: human, HepG2-A16-CD81EGFP cells; read-out: INHIBITION
Quantity Measured: cytotoxicity at 10 µM (%)
Only the number, expressed in %, is required.

GET /value?item= CC(NC(=O)NCCCN1CCCCCC1)c1nncn1C (stereo not given) &field=cytotoxicity at 10 µM returns -7.1

Consider COc1ccc(NC(=O)CCC2CCCN(Cc3ncon3)C2)cc1Cl (stereo not given) . Its measured cytotoxicity at 10 µM is -6.12

# cytotoxicity at 10 µM (compound: Cc1ccc(C(=O)Nc2ccc(N3CCCC3)cn2)cc1C ) is 26.9

Lab book: cytotoxicity at 10 µM of Fc1cnc(N2CCO[C@H]3CN(CC4CCOC4)C[C@H]32)nc1 (stereo not given in full) noted as 12.3

Briefly, cytotoxicity at 10 µM measured for O=C(CCn1nc(C(F)(F)F)c(Br)c1C1CC1)NN1CCOCC1 : 8.85

Per the records, this compound ( CC(C)CC(=O)N1CCCC1c1ccsc1 (stereo not given) ) has cytotoxicity at 10 µM equal to 2.96

Note to self: cytotoxicity at 10 µM recorded for Cc1cc(CN2CCN(C(=O)c3sccc3C(C)C)CC2)no1 was -0.962

Kindly note the recorded cytotoxicity at 10 µM for Cc1nccn1CC1CCCN(Cc2ccc(-c3cccnc3)cc2)C1 (stereo not given) , which is 2.97

cytotoxicity at 10 µM reading for CC(=O)N1CC(=O)N(c2cccnc2)CC12CCN(Cc1nccs1)C2 (stereo not given) : 6.85

Record COCC(O)CN(C)c1cc(C(F)(F)F)nc(-c2cccnc2)n1 (stereo not given) . Reported cytotoxicity at 10 µM: 7.02

// cytotoxicity at 10 µM value for Cc1cc(C(=O)N2CCCC2Cn2nc(C)cc2C)on1 (stereo not given) : -8.21

Just so you know, measured cytotoxicity at 10 µM for CN1CCC(N2CCOC[C@H]2c2nc(-c3ccncc3)c[nH]2)CC1 came out at -5.15

Kindly note the recorded cytotoxicity at 10 µM for c1cc(CN2CCOCC3(CCN(C4CCOCC4)C3)C2)ccn1 (stereo not given) , which is 0.866

So, CN(c1nc(Cn2cnccc2=O)cs1)C1CC1 ? Its cytotoxicity at 10 µM was -6.59

cytotoxicity at 10 µM measured on CCN(C)Cc1nc(-c2ccccc2NS(C)(=O)=O)oc1C = 3.63
